- Tested on: colorectal tissue transcripts
- Test Name: SAGE of normal, adenoma and cancer colorectal tissue (transcript tag counts)
- Set-up: species or system human
- Condition Label: SAGE library CA2
# CA2 (SAGE tag count) per record follows
Experimental Endpoint: CA2 (SAGE tag count)

Seq: GTGGTGGCAG (chemistry not fully specified; the letters are possibly those of the target site)
Experimental Endpoint: CA2 (SAGE tag count)
Assay Result: 3
--
Seq: GTCCTGAACA (chemistry not fully specified)
Experimental Endpoint: CA2 (SAGE tag count)
Assay Result: 0
--
Seq: CTTGACATAC (chemistry not fully specified)
Experimental Endpoint: CA2 (SAGE tag count)
Assay Result: 0
--
Seq: AAGGTAGCAG (chemistry not fully specified)
Experimental Endpoint: CA2 (SAGE tag count)
Assay Result: 4
--
Seq: AGTGGGCTCA (chemistry not fully specified)
Experimental Endpoint: CA2 (SAGE tag count)
Assay Result: 0
--
Seq: GCCAGGTTGC (chemistry not fully specified)
Experimental Endpoint: CA2 (SAGE tag count)
Assay Result: 1
--
Seq: CTTCTTGCCC (chemistry not fully specified)
Experimental Endpoint: CA2 (SAGE tag count)
Assay Result: 1
--
Seq: CCCCCTGCAT (chemistry not fully specified)
Experimental Endpoint: CA2 (SAGE tag count)
Assay Result: 0
--
Seq: GGTGAAGAGG (chemistry not fully specified)
Experimental Endpoint: CA2 (SAGE tag count)
Assay Result: 9
--
Seq: AATCACAAAT (chemistry not fully specified)
Experimental Endpoint: CA2 (SAGE tag count)
Assay Result: 3
--
Seq: GCTCTTCCCC (chemistry not fully specified; the letters are possibly those of the target site)
Experimental Endpoint: CA2 (SAGE tag count)
Assay Result: 0
--
Seq: CCTGCTGCAG (chemistry not fully specified)
Experimental Endpoint: CA2 (SAGE tag count)
Assay Result: 9
--
Seq: CGGTGGGACC (target site or template, no part of the molecule; chemistry not given here)
Experimental Endpoint: CA2 (SAGE tag count)
Assay Result: 3
--
Seq: ATGCGGAGTC (chemistry not fully specified)
Experimental Endpoint: CA2 (SAGE tag count)
Assay Result: 4
--
Seq: GCCACGTGGA (chemistry not fully specified)
Experimental Endpoint: CA2 (SAGE tag count)
Assay Result: 1
--
Seq: CGAGGGGCCA (chemistry not fully specified)
Experimental Endpoint: CA2 (SAGE tag count)
Assay Result: 32
--
Seq: GGAGGCCGAG (chemistry not fully specified)
Experimental Endpoint: CA2 (SAGE tag count)
Assay Result: 5
--
Seq: GCCAGACACC (chemistry not fully specified)
Experimental Endpoint: CA2 (SAGE tag count)
Assay Result: 2
--
Seq: GTGGCGGGAA (chemistry not fully specified)
Experimental Endpoint: CA2 (SAGE tag count)
Assay Result: 0
--
Seq: GTCCGAGTGC (chemistry not fully specified)
Experimental Endpoint: CA2 (SAGE tag count)
Assay Result: 0
--
Seq: GTGCACTGAG (chemistry not fully specified)
Experimental Endpoint: CA2 (SAGE tag count)
Assay Result: 13
--
Seq: GACATCAAGT (chemistry not fully specified)
Experimental Endpoint: CA2 (SAGE tag count)
Assay Result: 17
--
Seq: CAAATAAAAG (chemistry not fully specified)
Experimental Endpoint: CA2 (SAGE tag count)
Assay Result: 1
--
Seq: CTGGGCCTCT (chemistry not fully specified)
Experimental Endpoint: CA2 (SAGE tag count)
Assay Result: 3
--
Seq: CCCGCCTCTT (chemistry not fully specified)
Experimental Endpoint: CA2 (SAGE tag count)
Assay Result: 1
--
Seq: ATGATGGCAC (chemistry not fully specified; the letters are possibly those of the target site)
Experimental Endpoint: CA2 (SAGE tag count)
Assay Result: 0
--
Seq: GGATGGCTTA (chemistry not fully specified)
Experimental Endpoint: CA2 (SAGE tag count)
Assay Result: 1
--
Seq: GGAGGCGCTC (chemistry not fully specified)
Experimental Endpoint: CA2 (SAGE tag count)
Assay Result: 1
--
Seq: CTGGCAAAGG (chemistry not fully specified)
Experimental Endpoint: CA2 (SAGE tag count)
Assay Result: 0
--
Seq: CTAGCCTCAC (chemistry not fully specified)
Experimental Endpoint: CA2 (SAGE tag count)
Assay Result: 58
--
Seq: GGCTGGGCCT (chemistry not fully specified)
Experimental Endpoint: CA2 (SAGE tag count)
Assay Result: 8
--
Seq: CCTGTCTGCC (chemistry not fully specified)
Experimental Endpoint: CA2 (SAGE tag count)
Assay Result: 1
--
Seq: GCTGTGCCTG (chemistry not fully specified)
Experimental Endpoint: CA2 (SAGE tag count)
Assay Result: 8
--
Seq: ATGGTGGGGG (chemistry not fully specified)
Experimental Endpoint: CA2 (SAGE tag count)
Assay Result: 2
--
Seq: GTGGTTCACG (chemistry not fully specified)
Experimental Endpoint: CA2 (SAGE tag count)
Assay Result: 0
--
Seq: CGGACTCACT (chemistry not fully specified)
Experimental Endpoint: CA2 (SAGE tag count)
Assay Result: 10
